molecular target: human V1a receptor (Homo sapiens, UniProt P37288); construct: host or cells: CHO cells; assay: Human vasopressin V1a receptor binding assay; details: hV1a cell line (CHO), competition with 1 nM 3H-AVP, 45 minutes at 37° C.; read-out: V1a BINDING AFFINITY (IC50 (nM))
Sequence (P37288 whole entry): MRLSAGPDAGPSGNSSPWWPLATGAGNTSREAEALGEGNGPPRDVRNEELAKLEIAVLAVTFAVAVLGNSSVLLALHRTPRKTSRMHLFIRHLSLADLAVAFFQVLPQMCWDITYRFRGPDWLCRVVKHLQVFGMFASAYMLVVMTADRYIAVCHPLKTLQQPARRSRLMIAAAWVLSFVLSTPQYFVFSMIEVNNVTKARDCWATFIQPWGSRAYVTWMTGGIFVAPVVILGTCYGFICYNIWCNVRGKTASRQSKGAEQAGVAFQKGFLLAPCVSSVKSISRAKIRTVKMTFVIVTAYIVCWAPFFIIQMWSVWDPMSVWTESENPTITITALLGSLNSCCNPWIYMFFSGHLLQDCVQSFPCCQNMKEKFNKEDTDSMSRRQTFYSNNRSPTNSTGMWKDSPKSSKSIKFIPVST
QUANTITY: IC50 (nM)

# MOLECULE, IC50, nM
measured = [
    ("O=C(NCc1cccc(C(F)(F)F)c1)[C@H](CCC(=O)N1CCN(CCc2ccccc2)CC1)N1C(=O)[C@@H](N2C(=O)OC[C@@H]2c2ccccc2)[C@H]1C=Cc1ccccc1 (single isomer, unassigned)", 1.9),
]

(A) O=C(C[C@@H](C(=O)NCc1cccc(C(F)(F)F)c1)N1C(=O)[C@@H](N2C(=O)OC[C@@H]2c2ccccc2)[C@H]1/C=C/c1ccccc1)NC1CCN(Cc2ccccc2)CC1
(B) O=C(NCc1cccc(C(F)(F)F)c1)[C@H](CCC(=O)N1CCN(CC2CCCCC2)CC1)N1C(=O)[C@@H](N2C(=O)OC[C@@H]2c2ccccc2)[C@H]1/C=C/c1ccccc1
(C) O=C(NCc1cccc(C(F)(F)F)c1)[C@H](CCC(=O)N1CCN(N2CCCC2)CC1)N1C(=O)[C@@H](N2C(=O)OC[C@@H]2c2ccccc2)[C@H]1/C=C/c1ccccc1
## Task Returns the items ordered by IC50, from maximum to minimum. Write the labels in rank order as requested.
## Result C, A, B
(C: 3.24 nM, A: 1.84 nM, B: 0.75 nM)

---

biological target: human V1a receptor (Homo sapiens); construct: host or cells: CHO cells; test: Human vasopressin V1a receptor binding assay; details: hV1a cell line (CHO), competition with 1 nM 3H-AVP, 45 minutes at 37° C.; read-out: V1a BINDING AFFINITY (IC50 (nM))
QUANTITY: IC50 (nM)

# MOLECULE, QUANTITY, UOM, REPORTED VALUE
rows = [
    ("CCCCN1CCN(C(=O)CCC(C(=O)NCc2cccc(C(F)(F)F)c2)N2C(=O)C(N3C(=O)OCC3c3ccccc3)C2C=Cc2ccccc2)CC1 (single isomer, unassigned) [Example 103]", "IC50", "nM", 0.81),
    ("CCCCN1CCN(C(=O)CC[C@H](C(=O)NCc2cccc(C(F)(F)F)c2)N2C(=O)[C@@H](N3C(=O)OC[C@@H]3c3ccccc3)[C@H]2/C=C/c2ccccc2)CC1 [Example 137]", "IC50", "nM", 17),
    ("CC(C)N1CCN(C(=O)CCC(C(=O)NCc2cccc(C(F)(F)F)c2)N2C(=O)C(N3C(=O)OCC3c3ccccc3)C2C=Cc2ccccc2)CC1 (single isomer, unassigned) [Example 104]", "IC50", "nM", 1.85),
]

(a) CC(C)(C)OC(=O)CC[C@@H](C(=O)NCc1cccc(C(F)(F)F)c1)N1C(=O)[C@@H](N2C(=O)OC[C@@H]2c2ccccc2)[C@H]1/C=C/c1ccccc1 [Example 20]
(b) CC(C)N1CCN(C(=O)CC[C@H](C(=O)NCc2cccc(C(F)(F)F)c2)N2C(=O)[C@@H](N3C(=O)OC[C@@H]3c3ccccc3)[C@H]2/C=C/c2ccccc2)CC1 [Example 138]
(c) CCCCN1CCN(C(=O)C(C(=O)NCc2cccc(C(F)(F)F)c2)N2C(=O)[C@@H](N3C(=O)OC[C@@H]3c3ccccc3)[C@H]2/C=C/c2ccccc2)CC1 (mixture of isomers) [Example 40]
(d) O=C(NCc1cccc(C(F)(F)F)c1)C(CCC(=O)N1CCN(C2CCCCC2)CC1)N1C(=O)C(N2C(=O)OCC2c2ccccc2)C1C=Cc1ccccc1 (single isomer, unassigned) [Example 110]
## Task Returns the items ordered by IC50, from maximum to minimum. Write the labels in rank order as requested.
## Result a, b, c, d
(a: 35 nM, b: 21 nM, c: 11 nM, d: 0.49 nM)
